assay name: gradient 5% acetonitrile 3 min, to 50% in 2 min, to 85% in 15 min, held 3 min, 100 µL/min
experimental setup: column: Zorbax Extend-C18 2.1 x 50 mm; eluents: water / acetonitrile, 0.1% formic acid

>  <compound>
Cc1ccc2[nH]cc(CCNC(=O)CCC(=O)N3CCSc4c3c(C)nn4-c3ccccc3)c2c1

>  <RP-LC retention time / s>
896

$$$$
>  <compound>
CCNc1cc(N2CCC(CCC(=O)NCc3cc(F)cc(F)c3)CC2)ncn1

>  <RP-LC retention time / s>
669

$$$$
>  <compound>
Cc1ccc(Cn2c(=O)n(CCNC(=O)CC(C)C)c3ncccc32)cc1

>  <RP-LC retention time / s>
806

$$$$
>  <compound>
CCCCN1C(=O)CC2CCOC21C (centres undefined)

>  <RP-LC retention time / s>
753

$$$$

---

assay name: gradient 5% acetonitrile 3 min, to 50% in 2 min, to 85% in 15 min, held 3 min, 100 µL/min
experimental setup: column: Zorbax Extend-C18 2.1 x 50 mm; eluents: water / acetonitrile, 0.1% formic acid
Listed molecules paired with reported RP-LC retention time
metric name: RP-LC retention time (s)

>  <molecule>
CCc1nn2c(CNS(=O)(=O)c3ccc(F)cc3)c(-c3ccccc3)nc2s1

>  <experimental result>
932

$$$$
>  <molecule>
COc1ccc(OC)c(CNC(=O)c2nnc(-c3ccc(S(=O)(=O)N4CCOCC4)cc3)o2)c1

>  <experimental result>
826

$$$$
>  <molecule>
CCOC(=O)c1c(S(=O)(=O)N2CCC(C(=O)Nc3cccc(OC)c3)CC2)c(C)n(C)c1C

>  <experimental result>
834

$$$$
>  <molecule>
COC(=O)c1c(NCc2ccc(SC)cc2)c2cccc(Cl)c2[nH]c1=O

>  <experimental result>
853

$$$$
>  <molecule>
N#Cc1ccc(-c2nc(-c3ccc(S(=O)(=O)N4CCC(C(=O)N5CCCC5)CC4)cc3)no2)cc1

>  <experimental result>
947

$$$$
>  <molecule>
COC(=O)CNC(=O)N1c2ccccc2CC1c1nc(C2CC2)no1 (stereo not drawn)

>  <experimental result>
815

$$$$
>  <molecule>
Cc1cc(=O)n(CC(=O)NCc2ccc(F)cc2F)c(N2CCCCC2)n1

>  <experimental result>
657

$$$$
>  <molecule>
COCCNC(=O)C1CCN(S(=O)(=O)c2ccc3c(c2)NC(=O)CO3)CC1

>  <experimental result>
862

$$$$

---

assay name: gradient 5% acetonitrile 3 min, to 50% in 2 min, to 85% in 15 min, held 3 min, 100 µL/min
experimental setup: column: Zorbax Extend-C18 2.1 x 50 mm; eluents: water / acetonitrile, 0.1% formic acid
Listed molecules paired with reported RP-LC retention time

>  <molecule>
CCn1c(=O)c(C(=O)N2CCN(c3ccccn3)CC2)nc2ccccc21

>  <RP-LC retention time [s]>
588

$$$$
>  <molecule>
CCOC(=O)C1CCN(c2c(S(=O)(=O)c3ccccc3)cnc3ccc(C)cc23)CC1

>  <RP-LC retention time [s]>
964

$$$$
>  <molecule>
COCCn1nnnc1C1CC2(CCOCC2)C(=O)N1Cc1ccc(C(F)(F)F)cc1 (configuration not stated)

>  <RP-LC retention time [s]>
797

$$$$
>  <molecule>
CC1CCCN(S(=O)(=O)c2ccc(-n3cnc(C(=O)NC4CC4)c3)nc2)C1 (configuration not stated)

>  <RP-LC retention time [s]>
798

$$$$
>  <molecule>
CCCN(Cc1ccc(OC)cc1)Cc1cc(=O)n2cc(C)ccc2n1

>  <RP-LC retention time [s]>
633

$$$$
>  <molecule>
CCOCC(=O)N1CCCC(c2nc(CNC(=O)C3CCC3)cs2)C1 (configuration not stated)

>  <RP-LC retention time [s]>
645

$$$$
>  <molecule>
Cc1ccc(OCC(=O)NCc2ccc(F)cc2)nn1

>  <RP-LC retention time [s]>
607

$$$$
>  <molecule>
COC(=O)CNC(=O)N1CCC2(CC1)Nc1cc(F)ccc1-n1cccc12

>  <RP-LC retention time [s]>
816

$$$$
>  <molecule>
CCc1ccc(CNC(=O)C2CCN(Cc3cn(CC)c4ccc(OC)cc34)CC2)cc1

>  <RP-LC retention time [s]>
761

$$$$
>  <molecule>
CC(=O)N1CCc2cc(N3CC(C(=O)N(C)Cc4ccccc4)CC3=O)ccc21 (configuration not stated)

>  <RP-LC retention time [s]>
697

$$$$
>  <molecule>
COc1ccc(Cn2ccc3ccc(C(=O)NO)cc32)cc1

>  <RP-LC retention time [s]>
782

$$$$
>  <molecule>
O=C(C1=CN(c2ccc3c(c2)OCO3)c2ccccc2S1(=O)=O)N1CCCCC1

>  <RP-LC retention time [s]>
780

$$$$
>  <molecule>
O=c1c2nc(-c3ccc(F)cc3F)cn2ccn1-c1cccc(Cl)c1

>  <RP-LC retention time [s]>
949

$$$$
>  <molecule>
CC(NC(=O)Cc1cccn1-c1ccc(Cl)cc1)c1ccccn1 (configuration not stated)

>  <RP-LC retention time [s]>
790

$$$$
>  <molecule>
c1cncc(CN2CC(Oc3ccc(-c4noc(-c5ccncc5)n4)cc3)C2)c1

>  <RP-LC retention time [s]>
813

$$$$
>  <molecule>
Cc1ccc(CCC(=O)Nc2ccc(SC(F)F)cc2)o1

>  <RP-LC retention time [s]>
919

$$$$
>  <molecule>
O=C(NCC1CCCO1)c1cnn2c(-c3ccc4c(c3)OCO4)ccnc12 (configuration not stated)

>  <RP-LC retention time [s]>
780

$$$$
